Test system: MV4-11 leukemia cell line
Test: CellTiter-Glo assay, drug administered alone
Assay type: cell-based
Details: Homo sapiens, venetoclax alone, 72 hours, read-out: IC50 Second test
Measured endpoint: IC50 (nM)
Response body: numeric value in nM, unit text excluded.

Asked: Report IC50 for CC1(C)CCC(CN2CCN(c3ccc(C(=O)NS(=O)(=O)c4ccc(NCC5CCOCC5)c([N+](=O)[O-])c4)c(Oc4cnc5[nH]ccc5c4)c3)CC2)=C(c2ccc(Cl)cc2)C1 tested on MV4-11 leukemia cell line.
Given back: 8.7

====

Test system: U937 leukemia cell line
Test: CellTiter-Glo assay, drug administered alone
Type: cell-based
Details: Homo sapiens, U-937, 72 h, cytarabine alone, read-out: IC50 Second test
Measured endpoint: IC50 (nM)
Response body: numeric value in nM, unit text excluded.

Asked: What value of IC50 has been reported for the following molecule? Nc1ccn([C@@H]2O[C@H](CO)[C@@H](O)[C@@H]2O)c(=O)n1
Given back: 18.4
